- Test system: FGFR2;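 further: kd values determined as follow-up on hits from a single-replicate KINOMEscan panel screen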
assay.metric: Kd (nM)
Give your result in nM as a bare value.

Query string: Provide the documented Kd with FGFR2 as the system for COc1cc(OC)cc(-c2cc3cnc(N)nc3nc2NC(=O)NC(C)(C)C)c1
Result string: 310

###

- Tested on: JNK2;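 further: KINOMEscan kinase panel screen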
- Construct: gene MAPK9
- test.settings: concentration: 1 μM, replicates: in singlicate; n = 1
assay.metric: %Inh (%)
Give your result in % as a bare value.

Some solved cases for reference:
given.smiles	assayed.target	value.unit	%Inh
CCS(=O)(=O)c1ccc(OC)c(Nc2ncc(-c3ccc(F)cc3)o2)c1.Cl	JNK2	%	21
CC(C)(C)c1ccc(C(=O)Nc2cn3cc(-c4ccccc4)ccc3n2)cc1	JNK2	%	0
Nc1nccc2scc(-c3ccc4c(c3)CCN4C(=O)Cc3ccccc3)c12	JNK2	%	10
COc1cccc(-n2cnc3c(N)ncnc32)c1	JNK2	%	27
Nc1ncnc2c1ncn2-c1cccc(F)c1	JNK2	%	18
COC(=O)c1c(-c2ccccc2)c2cc(Br)ccc2c(=O)n1Cc1ccc(S(C)(=O)=O)cc1	JNK2	%	98.8
Cc1ccccc1COc1cc(-n2cnc3cc(Cl)ccc32)sc1C(N)=O	JNK2	%	0
Cc1ccc(-c2ccc3c(ccc4sc5c(c43)NC[C@@H](C)N=C5N(C)C)n2)cn1	JNK2	%	0
Fc1cccc(CSc2nnc(-c3ccc4c(c3)CCO4)o2)c1	JNK2	%	4
CCC(=O)c1c(-c2ccccc2)c2cc(Cl)ccc2c(=O)n1Cc1ccc(C(=O)O)cc1	JNK2	%	93.4

Query string: Provide the documented %Inh with JNK2 as the system for O=C1NC(=O)C(c2ccccc2)=C1Nc1cccc(O)c1
Result string: 13

Query string: Provide the documented %Inh with JNK2 as the system for COc1cc2nccc(Nc3ccc(OCc4ccc(NC(C)=O)cc4)cc3)c2cc1OC.Cl
Result string: 0
